Tested on: NCI-H522 lung
METHOD NOTES: NCI-60 one-dose screen, 48 h
CONDITION CONTEXT: 10 µM unless noted
About 83,000 compounds went through this panel and 20% of them were active in at least one assay; those are over-represented in the sample as a whole. Active and inactive are the calls of the source. The calls were made as follows: active = growth percent below 10; inactive = the rest.
Outcomes: yes (active), no (inactive)

# COMPOUND, ASSIGNED CATEGORY
rows = [
    ("CCSc1ccc2c(c1)N(CCCN1CCN(C)CC1)c1ccccc1S2", "no"),
    ("CC1(c2ccccc2)NC(=O)N(CC(=O)Nc2cccc(I)c2)C1=O (configuration not stated)", "no"),
    ("O=C(Nc1ccccc1)Oc1ccccc1-c1ccccc1", "no"),
    ("Cc1ccc(-c2csc(/N=C3\\C(=O)Nc4ccccc43)n2)cc1", "yes"),
    ("CC1NC(=S)NC(=O)/C1=C/c1cc(=O)oc2c1ccc1ccccc12 (configuration not stated)", "no"),
    ("O=c1nc2n(nc1/C=C/c1ccco1)CC(c1ccc(Cl)cc1)=NN2", "no"),
    ("COc1nccnn1", "no"),
    ("COc1ccccc1C(C[N+](=O)[O-])c1c(-c2ccccc2)[nH]c2cc(C)ccc12 (configuration not stated)", "no"),
    ("Cn1c(COC(=O)N2CCCCC2)nc2c(N3CCOCC3)nc(-c3ccccc3)nc21", "yes"),
    ("C(=C\\c1n(Cc2ccc3ccccc3c2)c(-c2ccccc2)c(-c2ccccc2)[n+]1Cc1ccc2ccccc2c1)/c1ccccc1", "yes"),
    ("CCN(CC)CCOC(COc1cc(C)cc(C)c1)COc1cc(C)cc(C)c1", "no"),
    ("COc1ccccc1N1CCN(C(=O)c2ccc3nc(NC(=O)c4ccc(NCCc5ccccc5)c([N+](=O)[O-])c4)sc3c2)CC1", "no"),
]
